test system: Lefty1; experiment: Lefty1 binders on small-molecule microarrays, primary screen, biochemical, small-molecule microarray, 635/667 nm fluorescence (AID 1139); details: small-molecule microarray binding, fluorescence 635/667; higher = more signal

structure.smiles.string	composite z-score
CC(=O)Nc1ccc([C@@H]2N[C@H](C(=O)O)CC[C@H]2C)cc1	0.701
COc1cccc([C@H]2Oc3ccc(OC)cc3C(=NOC[C@@H](C)[C@H](OCc3ccccc3)C(C)C)[C@@H]2O)c1	0.709
COc1ccc(O[C@H]2C=C[C@@H](c3ccccc3)O[C@@H]2CON=C2[C@H]3CCn4c(=O)n(-c5ccccc5)c(=O)n4[C@H]3[C@H](O)[C@@H]3O[C@H]23)cc1	0.451
O=C1C[C@@H](O)[C@@H](O)[C@@H]2[C@@H]3C(=O)N(Cc4ccc5c(c4)OCO5)C(=O)[C@@H]3CC[C@H]12	0.428
CCc1cc2c(nc1CC)CCN(CCC(C)=NO[C@H](C)c1cn([C@@H]3COC[C@H]3O)nn1)C2	0.204
COc1cccc([C@H]2Oc3ccc(OC)cc3C(=NO[C@H](C)c3cn([C@H](CO)Cc4ccccc4)nn3)[C@@H]2O)c1	0.0027
